Tested on: DU-145 prostate
Assay info: NCI tumour cell line growth inhibition, 48 h; in the data active = GI50 below about 0.43 µM; inactive = the rest
Select the matching outcome among active, inactive

Worked cases, answers included:
# Compound, System tested, Assigned class
records = [
    ("CN1CCN(CCCOc2cccc3nc(Nc4ccc(F)c(F)c4)ccc23)CC1", "DU-145 prostate", "inactive"),
    ("COc1cc(Nc2ncnc(Nc3ccc4c(n3)NC(=O)C(C)(C)O4)n2)cc(OC)c1OC", "DU-145 prostate", "inactive"),
    ("CCN(CC)c1ccc2nc3ccc(N=Nc4ccc(O)cc4)cc3[n+](-c3ccccc3)c2c1", "DU-145 prostate", "inactive"),
    ("COc1ccc(-c2n[nH]nc2-c2cc(OC)c3c(c2)OCO3)cc1", "DU-145 prostate", "active"),
    ("O=C1Nc2ccccc2/C1=C/c1cn(CC(O)Cn2cc(/C=C3\\C(=O)Nc4ccccc43)c3ccccc32)c2ccccc12 (stereo unspecified)", "DU-145 prostate", "inactive"),
]

Per the assay record, what outcome was assigned to `CCc1nc2cc(/C=C/C(=O)NO)ccc2c(=O)n1CCc1ccc(OC)cc1` ?
inactive

What did the test return for `C=C(CN1c2ccccc2Sc2ccccc21)c1ccc(C(=O)Nc2ccccc2N)cc1` ?
inactive

Per the records of this test, what outcome belongs to `C[C@H](NC(=O)c1c(C(F)F)nn(C)c1Oc1cccc(C(F)(F)F)c1)c1ccc(C(=O)O)cc1` ?
inactive

Dear colleague, could you share the recorded outcome for COc1ccc(-c2nsc3c2NC(=O)CC3c2cccc(Cl)c2)cc1 (stereo unspecified) when you have a moment?
inactive

Assay result, entry `C=C1C(=O)O[C@H]2[C@H]1CC/C(COC(=O)NCCc1cccc(OC)c1)=C\CC[C@@]1(C)O[C@@H]21` — outcome?
inactive

Please let me know the test result on file for NC(CSC(c1ccccc1)(c1ccccc1)c1ccc(F)cc1)C(=O)O (stereo unspecified) .
inactive
